Reference source for all entries: the supplement of paper PMC10567573

B1: PPP2R2B (parent)
chain: RNTKRDVTLEASRENSKPRAILKP

Variants of: B1
Experiment: protein stability index of a GFP-peptide fusion (GPS, HEK-293T) (PSI 1-6); higher = more stable;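 further: lentivirally expressed fusions sorted by FACS into six bins by GFP to DsRed ratio, PSI derived from sequencing read proportions per bin multiplied by bin number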
Details: c terminus: a fixed tail appended
Below, each of the variants is paired with its reported protein stability index value.
QUANTITY_MEASURED: protein stability index

D6T; 4.34
E10Y; 4
K23P; 4.5
L22A; 4.99
N2R; 4.02
I21G; 4.99
T8A; 4.72
S12Q; 4.42
R5S; 4.49
V7N; 4.76
S16G; 4.42
K23E; 4.5
T3W; 4.05
P18H; 4.11
R1K; 4.65
R19V; 4.72
R5L; 4.4
D6H; 4.49
L22T; 4.49
S16N; 4.48
R13D; 5.09
A11W; 3.95
R13S; 4.91
R1Y; 4.22
I21H; 4.52
P24M; 4.06
K4I; 4.29
A20L; 4.19
S16F; 4.38
S16I; 4.19
R13H; 5.06
L9G; 4.88
N2G; 4.81
D6I; 3.64
R5V; 4.91
R13E; 5.14
R19H; 4.46
E10I; 4.14
P18W; 3.87
P24T; 4.88
N15E; 4.92
T3R; 4.45
E14L; 4.04
R19T; 4.52
A11L; 3.35
R19D; 4.86
